These entries and their values trace back to patent US10428140B2.

- TEST SYSTEM: T1, human EphA5 (Homo sapiens, UniProt P54756)
- T1 construct: a protein of the extracellular region of each human Eph receptor fused with the SEAP protein and the His tag; made in house; host or cells: Expi293F cells (culture supernatant)
- T1 sequence (P54756 25-573 limits assumed): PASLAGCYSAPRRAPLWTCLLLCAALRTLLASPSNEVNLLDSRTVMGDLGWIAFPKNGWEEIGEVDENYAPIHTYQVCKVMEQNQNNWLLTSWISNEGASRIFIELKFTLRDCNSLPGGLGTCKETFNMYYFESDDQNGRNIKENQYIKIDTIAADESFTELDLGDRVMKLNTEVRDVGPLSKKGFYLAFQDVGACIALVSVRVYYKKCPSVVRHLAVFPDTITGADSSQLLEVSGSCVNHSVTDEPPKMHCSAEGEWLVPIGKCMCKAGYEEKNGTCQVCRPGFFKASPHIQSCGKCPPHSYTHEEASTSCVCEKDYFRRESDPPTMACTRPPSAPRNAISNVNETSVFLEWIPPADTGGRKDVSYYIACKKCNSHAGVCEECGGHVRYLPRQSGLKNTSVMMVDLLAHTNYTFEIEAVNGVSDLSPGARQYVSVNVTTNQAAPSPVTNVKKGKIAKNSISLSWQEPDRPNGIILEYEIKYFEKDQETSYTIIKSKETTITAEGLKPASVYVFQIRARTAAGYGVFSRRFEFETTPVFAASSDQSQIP
- PROTOCOL TEXT: Selectivity ELISA of humanized antibodies for human Eph receptor
- Format: binding
- EXPERIMENTAL CONTEXT: coated protein 1 nM
Measured hEphA5-SEAP-: absorbance at 450 nm, percentage with respect to hEphA4-SEAP-His as 100%, listed per entry for reference.
Form entry: value (%) — number only.

| MOLECULE | NUMERIC READOUT |
| --- | --- |
| 93 (antibody, V domains shown, constant regions without entry; synthetic humanized antibody light chain variable region sequence; synthetic humanized antibody heavy chain variable region sequence) VL: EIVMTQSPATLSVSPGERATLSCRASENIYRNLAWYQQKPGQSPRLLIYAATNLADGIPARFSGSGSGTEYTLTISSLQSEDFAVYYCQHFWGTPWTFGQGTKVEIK VH: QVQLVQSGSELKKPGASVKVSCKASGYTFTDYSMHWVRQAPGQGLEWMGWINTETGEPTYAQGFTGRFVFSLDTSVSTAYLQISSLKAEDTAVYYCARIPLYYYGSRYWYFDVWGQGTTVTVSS | 4.9 |
| 86 (antibody, V domains shown, constant regions without entry; synthetic humanized antibody light chain variable region sequence; synthetic humanized antibody heavy chain variable region sequence) VL: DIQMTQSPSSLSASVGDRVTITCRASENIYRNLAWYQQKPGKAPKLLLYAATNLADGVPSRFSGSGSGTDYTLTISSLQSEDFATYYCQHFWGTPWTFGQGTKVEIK VH: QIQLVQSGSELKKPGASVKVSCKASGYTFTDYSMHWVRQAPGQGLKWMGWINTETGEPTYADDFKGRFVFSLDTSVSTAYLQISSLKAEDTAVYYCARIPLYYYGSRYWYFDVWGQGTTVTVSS | 5.7 |
| 157 (antibody, V domains shown, synthetic humanized antibody heavy chain variable region sequence; synthetic humanized antibody light chain variable region sequence) VH: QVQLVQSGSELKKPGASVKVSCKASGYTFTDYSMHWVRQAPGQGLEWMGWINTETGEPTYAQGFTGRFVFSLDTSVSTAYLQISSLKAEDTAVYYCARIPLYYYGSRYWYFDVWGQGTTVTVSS VL: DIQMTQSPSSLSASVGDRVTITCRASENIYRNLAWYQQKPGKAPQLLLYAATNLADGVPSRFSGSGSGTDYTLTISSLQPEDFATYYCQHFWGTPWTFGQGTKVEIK | 6.1 |

With those in mind, consider the next molecule.
Which hEphA5-SEAP-: absorbance at 450 nm, percentage with respect to hEphA4-SEAP-His as 100% value belongs to 153 (antibody, V domains shown, synthetic humanized antibody heavy chain variable region sequence; synthetic humanized antibody light chain variable region sequence) VH: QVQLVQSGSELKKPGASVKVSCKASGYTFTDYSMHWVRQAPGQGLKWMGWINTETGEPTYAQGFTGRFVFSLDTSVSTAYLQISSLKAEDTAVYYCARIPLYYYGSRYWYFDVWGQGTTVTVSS VL: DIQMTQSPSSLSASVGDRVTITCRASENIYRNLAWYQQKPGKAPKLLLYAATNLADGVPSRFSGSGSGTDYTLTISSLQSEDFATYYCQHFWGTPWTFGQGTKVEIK ? 6.1
